Kindly supply the reported half-life at 3 µM values for the records listed here.
assay: PBS stability assay at 37 °C via LC-MS/MS; assay type: physicochemical; settings: phosphate-buffered saline (DPBS), pH 7.03, PBS, 37 °C; read-out: PBS, 37 °C t½ (Table S23) (converted)
Numbers only, in h.

A selection of reference data follows.
CNCCN(C(=O)O/N=C(\C)[C@H]1CC[C@H]2[C@@H]3CCC4C[C@H](O)CC[C@]4(C)[C@H]3CC[C@]12C)C(C)C.O=C(O)C(F)(F)F (stereo partly drawn) [21c] :: 3.78
C/C(=N\OC(=O)N(C)C[C@H]1CCCN1)[C@H]1CC[C@H]2[C@@H]3CCC4=CC(=O)CC[C@]4(C)[C@H]3CC[C@]12C.O=C(O)C(F)(F)F [20m] :: 0.8
CNCCN(CCn1ccnc1)C(=O)O/N=C(\C)[C@H]1CC[C@H]2[C@@H]3CCC4C[C@H](O)CC[C@]4(C)[C@H]3CC[C@]12C (stereo partly drawn) [21k] :: 4.12
CNCCN(C(=O)O/N=C(\C)[C@H]1CC[C@H]2[C@@H]3CCC4=CC(=O)CC[C@]4(C)[C@H]3CC[C@]12C)C(C)C.O=C(O)C(F)(F)F [20c] :: 3.27

Record half-life at 3 µM per entry; entries follow.
1. C/C(=N\OC(=O)N(C)C[C@@H]1CCCN1)[C@H]1CC[C@H]2[C@@H]3CCC4=CC(=O)CC[C@]4(C)[C@H]3CC[C@]12C.O=C(O)C(F)(F)F [20l]
2. CNCCN(CCn1ccnc1)C(=O)O/N=C(\C)[C@H]1CC[C@H]2[C@@H]3CCC4=CC(=O)CC[C@]4(C)[C@H]3CC[C@]12C [20k]

1. 0.74
2. 5.99

###

assay: Stability in PBS at room temperature via HPLC (UV); assay type: physicochemical; conditions: phosphate-buffered saline (DPBS), pH 7.03, PBS, rt; read-out: t½: PBS, rt (Table S23) (converted)
API: label(entry) gives yes (1) if the entry's half-life at 1 mg/mL is strictly smaller than 10 h; on equality or larger values it gives no (0).

Use the examples below as a reference point.
CNCCN(C(=O)O/N=C(\C)[C@H]1CC[C@H]2[C@@H]3CCC4=CC(=O)CC[C@]4(C)[C@H]3CC[C@]12C)C1CCCC1.O=C(O)C(F)(F)F [20e] :: no (0)
CNCCN(C(=O)O/N=C(\C)[C@H]1CC[C@H]2[C@@H]3CCC4=CC(=O)CC[C@]4(C)[C@H]3CC[C@]12C)C(C)C.O=C(O)C(F)(F)F [20c] :: no (0)
C/C(=N\OC(=O)N(C)C[C@@H]1CC2(CC2)CN1)[C@H]1CC[C@H]2[C@@H]3CCC4=CC(=O)CC[C@]4(C)[C@H]3CC[C@]12C [20q] :: yes (1)
CNCCN(C(=O)O/N=C(\C)[C@H]1CC[C@H]2[C@@H]3CCC4=CC(=O)CC[C@]4(C)[C@H]3CC[C@]12C)C1CC1.O=C(O)C(F)(F)F [20b] :: no (0)
CNCCN(C(=O)O/N=C(\C)[C@H]1CC[C@H]2[C@@H]3CCC4=CC(=O)CC[C@]4(C)[C@H]3CC[C@]12C)C1CCC1.O=C(O)C(F)(F)F [20d] :: no (0)

Let us examine a further case.
Take the compound CNCCN(CCCN1CCOCC1)C(=O)O/N=C(\C)[C@H]1CC[C@H]2[C@@H]3CCC4=CC(=O)CC[C@]4(C)[C@H]3CC[C@]12C.O=C(O)C(F)(F)F [20i] and say whether its half-life at 1 mg/mL is less than 10 h. no (0)

###

test: PBS stability assay at 37 °C via LC-MS/MS; format: physicochemical; details: PBS, 37 °C, 2 h
recorded metric: PBS, 37 °C %rem. at 2h (Table S23) (%)
Answers are plain numbers, in %.

A selection of reference data follows.
C/C(=N\OC(=O)N(CCO)CCNCCO)[C@H]1CC[C@H]2[C@@H]3CCC4=CC(=O)CC[C@]4(C)[C@H]3CC[C@]12C.Cl [20z] :: 78
C/C(=N\OC(=O)N(C)CC[C@@H]1CCCN1)[C@H]1CC[C@H]2[C@@H]3CCC4=CC(=O)CC[C@]4(C)[C@H]3CC[C@]12C.O=C(O)C(F)(F)F [20n] :: 77

Now examine the next entry.
Supply measured PBS, 37 °C %rem. at 2h (Table S23) of CNCCN(C(=O)O/N=C(\C)[C@H]1CC[C@H]2[C@@H]3CCC4C[C@H](O)CC[C@]4(C)[C@H]3CC[C@]12C)C1CCC1.O=C(O)C(F)(F)F (stereo partly drawn) [21d] in your reply. 38

###

assay: Stability in acetate buffer pH 5.0 at room temperature via HPLC (UV); type: physicochemical; details: pH 5, acetate buffer pH 5.0, rt, read-out: t½: pH 5.0, rt (Table S23) (converted)
recorded metric: half-life at 1 mg/mL

A selection of reference data follows.
CNCCN(CC(C)C)C(=O)O/N=C(\C)[C@H]1CC[C@H]2[C@@H]3CCC4=CC(=O)CC[C@]4(C)[C@H]3CC[C@]12C.O=C(O)C(F)(F)F [20f] :: > 168 h
CNCCN(CCNC)C(=O)O/N=C(\C)[C@H]1CC[C@H]2[C@@H]3CCC4=CC(=O)CC[C@]4(C)[C@H]3CC[C@]12C.Cl.Cl [20x] :: > 168 h
CNCCN(C(=O)O/N=C(\C)[C@H]1CC[C@H]2[C@@H]3CCC4=CC(=O)CC[C@]4(C)[C@H]3CC[C@]12C)C1CC1.O=C(O)C(F)(F)F [20b] :: > 168 h
CNCCN(CCN1CCOCC1)C(=O)O/N=C(\C)[C@H]1CC[C@H]2[C@@H]3CCC4=CC(=O)CC[C@]4(C)[C@H]3CC[C@]12C.O=C(O)C(F)(F)F [20j] :: 99.4 h

Record half-life at 1 mg/mL per entry; entries follow.
1. CNCCN(CCn1ccnc1)C(=O)O/N=C(\C)[C@H]1CC[C@H]2[C@@H]3CCC4=CC(=O)CC[C@]4(C)[C@H]3CC[C@]12C [20k]
2. C/C(=N\OC(=O)N(C)C[C@@H]1CCN1)[C@H]1CC[C@H]2[C@@H]3CCC4=CC(=O)CC[C@]4(C)[C@H]3CC[C@]12C [20o]
3. CNCCN(C(=O)O/N=C(\C)[C@H]1CC[C@H]2[C@@H]3CCC4=CC(=O)CC[C@]4(C)[C@H]3CC[C@]12C)C1CCCC1.O=C(O)C(F)(F)F [20e]

["> 168 h", "> 168 h", "> 168 h"]

Record half-life at 1 mg/mL per entry; entries follow.
1. CNCCN(CCCN1CCOCC1)C(=O)O/N=C(\C)[C@H]1CC[C@H]2[C@@H]3CCC4=CC(=O)CC[C@]4(C)[C@H]3CC[C@]12C.O=C(O)C(F)(F)F [20i]
2. CNCCN(C(=O)O/N=C(\C)[C@H]1CC[C@H]2[C@@H]3CCC4=CC(=O)CC[C@]4(C)[C@H]3CC[C@]12C)C1CCC1.O=C(O)C(F)(F)F [20d]

> 168 h
> 168 h

###

assay: Formation of progesterone oxime 3 from prodrugs in human plasma at 37 °C over 2 h; format: in vitro ADME; conditions: 2 h period
recorded metric: Formation/release of oxime 3 in human plasma, in words

C/C(=N\OC(=O)N(C)CC[C@@H]1CCCN1)[C@H]1CC[C@H]2[C@@H]3CCC4=CC(=O)CC[C@]4(C)[C@H]3CC[C@]12C.O=C(O)C(F)(F)F [20n] :: low levels of oxime
C/C(=N\OC(=O)N(C)C[C@@H]1CC(F)(F)CN1)[C@H]1CC[C@H]2[C@@H]3CCC4=CC(=O)CC[C@]4(C)[C@H]3CC[C@]12C [20r] :: low levels of oxime

###

assay: PBS stability assay at 37 °C via LC-MS/MS; format: physicochemical; settings: phosphate-buffered saline (DPBS), pH 7.03, PBS, 37 °C; read-out: t1/2 (h) PBS, 37 °C (Tables S25, S26) (converted)
API: label(entry) gives True if the entry's half-life at 3 µM is strictly smaller than 4 h; on equality or larger values it gives False.

Use the examples below as a reference point.
CNCCN(C)C(=O)O/N=C(\C)[C@H]1CC[C@H]2[C@@H]3CCC4=CC(=O)CC[C@]4(C)[C@H]3CC[C@]12C [20a] :: False
CNCCN(CC(C)C)C(=O)O/N=C(\C)[C@H]1CC[C@H]2[C@@H]3CCC4=CC(=O)CC[C@]4(C)[C@H]3CC[C@]12C.O=C(O)C(F)(F)F [20f] :: False
CNCCN(CCCN1CCOCC1)C(=O)O/N=C(\C)[C@H]1CC[C@H]2[C@@H]3CCC4=CC(=O)CC[C@]4(C)[C@H]3CC[C@]12C.O=C(O)C(F)(F)F [20i] :: False
CNCCN(C(=O)O/N=C(\C)[C@H]1CC[C@H]2[C@@H]3CCC4=CC(=O)CC[C@]4(C)[C@H]3CC[C@]12C)C1CCC1.O=C(O)C(F)(F)F [20d] :: True
CNCCN(C(=O)O/N=C(\C)[C@H]1CC[C@H]2[C@@H]3CCC4=CC(=O)CC[C@]4(C)[C@H]3CC[C@]12C)C(C)C.O=C(O)C(F)(F)F [20c] :: True
CNCCN(CCn1ccnc1)C(=O)O/N=C(\C)[C@H]1CC[C@H]2[C@@H]3CCC4=CC(=O)CC[C@]4(C)[C@H]3CC[C@]12C [20k] :: False
CNCCN(C(=O)O/N=C(\C)[C@H]1CC[C@H]2[C@@H]3CCC4=CC(=O)CC[C@]4(C)[C@H]3CC[C@]12C)C1CCCC1.O=C(O)C(F)(F)F [20e] :: True

Let us examine a further case.
Take the molecule CNCCN(C(=O)O/N=C(\C)[C@H]1CC[C@H]2[C@@H]3CCC4=CC(=O)CC[C@]4(C)[C@H]3CC[C@]12C)C1CC1.O=C(O)C(F)(F)F [20b] and say whether its half-life at 3 µM is less than 4 h. False

These data points were gathered from paper PMC12516379.
